Molecular target: T1, human OPGbp [143-317] (human, UniProt O14788 143-317)
T1 construct: also called OPGL
T1 sequence (looked up): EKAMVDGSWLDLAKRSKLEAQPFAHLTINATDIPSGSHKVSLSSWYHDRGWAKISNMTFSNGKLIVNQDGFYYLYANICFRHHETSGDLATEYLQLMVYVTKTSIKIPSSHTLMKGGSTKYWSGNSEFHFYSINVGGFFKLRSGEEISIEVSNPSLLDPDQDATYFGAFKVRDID
Test: SPR (BIAcore), immobilized OPGbp [143-317]
Reported kon is given for each of the following binders.

binder	unit_abbrev	kon
“AT” antibody variant S96Y (heavy chain CDR3) (antibody, name in Kabat numbering, V domains shown, not shown: human IgG1 CH1, hinge, CH2 and CH3) VH: QVQLVQSGAEVRKPGASVKVSCKASGYDFSNYAIHWVRQAPGQRLEWMGWINAGNGNTKFSQKFQGRITVTRDTAASTAYMELRSLRSEDTAVYYCARDYSNMVRGIIIAYYFDYWGQGTLVTVSS VL: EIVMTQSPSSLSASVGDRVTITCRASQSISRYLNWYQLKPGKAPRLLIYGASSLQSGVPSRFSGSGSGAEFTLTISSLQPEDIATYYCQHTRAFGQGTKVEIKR	M⁻¹ s⁻¹	2.75e+06
“AT” antibody variant S96W (heavy chain CDR3) (antibody, name in Kabat numbering, V domains shown, not shown: human IgG1 CH1, hinge, CH2 and CH3) VH: QVQLVQSGAEVRKPGASVKVSCKASGYDFSNYAIHWVRQAPGQRLEWMGWINAGNGNTKFSQKFQGRITVTRDTAASTAYMELRSLRSEDTAVYYCARDWSNMVRGIIIAYYFDYWGQGTLVTVSS VL: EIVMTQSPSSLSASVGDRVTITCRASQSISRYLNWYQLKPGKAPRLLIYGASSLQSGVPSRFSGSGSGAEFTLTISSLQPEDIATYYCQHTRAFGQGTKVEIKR	M⁻¹ s⁻¹	1.61e+06
“AT” antibody variant S96P (heavy chain CDR3) (antibody, name in Kabat numbering, V domains shown, not shown: human IgG1 CH1, hinge, CH2 and CH3) VH: QVQLVQSGAEVRKPGASVKVSCKASGYDFSNYAIHWVRQAPGQRLEWMGWINAGNGNTKFSQKFQGRITVTRDTAASTAYMELRSLRSEDTAVYYCARDPSNMVRGIIIAYYFDYWGQGTLVTVSS VL: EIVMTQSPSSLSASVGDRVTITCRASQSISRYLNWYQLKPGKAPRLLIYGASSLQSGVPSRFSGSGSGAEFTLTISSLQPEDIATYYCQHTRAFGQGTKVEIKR	M⁻¹ s⁻¹	1.45e+06
“AT” antibody variant S96L (heavy chain CDR3) (antibody, name in Kabat numbering, V domains shown, not shown: human IgG1 CH1, hinge, CH2 and CH3) VH: QVQLVQSGAEVRKPGASVKVSCKASGYDFSNYAIHWVRQAPGQRLEWMGWINAGNGNTKFSQKFQGRITVTRDTAASTAYMELRSLRSEDTAVYYCARDLSNMVRGIIIAYYFDYWGQGTLVTVSS VL: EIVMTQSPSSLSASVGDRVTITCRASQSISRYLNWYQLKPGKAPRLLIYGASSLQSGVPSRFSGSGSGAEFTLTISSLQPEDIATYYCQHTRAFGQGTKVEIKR	M⁻¹ s⁻¹	5.84e+06
“AT” antibody variant S96I (heavy chain CDR3) (antibody, name in Kabat numbering, V domains shown, not shown: human IgG1 CH1, hinge, CH2 and CH3) VH: QVQLVQSGAEVRKPGASVKVSCKASGYDFSNYAIHWVRQAPGQRLEWMGWINAGNGNTKFSQKFQGRITVTRDTAASTAYMELRSLRSEDTAVYYCARDISNMVRGIIIAYYFDYWGQGTLVTVSS VL: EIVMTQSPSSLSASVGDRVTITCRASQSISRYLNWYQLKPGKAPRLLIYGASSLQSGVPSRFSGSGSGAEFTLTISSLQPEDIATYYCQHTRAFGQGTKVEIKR	M⁻¹ s⁻¹	2.99e+06
“AT” antibody variant S96V (heavy chain CDR3) (antibody, name in Kabat numbering, V domains shown, not shown: human IgG1 CH1, hinge, CH2 and CH3) VH: QVQLVQSGAEVRKPGASVKVSCKASGYDFSNYAIHWVRQAPGQRLEWMGWINAGNGNTKFSQKFQGRITVTRDTAASTAYMELRSLRSEDTAVYYCARDVSNMVRGIIIAYYFDYWGQGTLVTVSS VL: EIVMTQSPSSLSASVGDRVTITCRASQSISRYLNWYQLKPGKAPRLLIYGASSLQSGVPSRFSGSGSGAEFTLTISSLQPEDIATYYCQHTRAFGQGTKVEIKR	M⁻¹ s⁻¹	5.37e+06
“AT” antibody variant S96G (heavy chain CDR3) (antibody, name in Kabat numbering, V domains shown, not shown: human IgG1 CH1, hinge, CH2 and CH3) VH: QVQLVQSGAEVRKPGASVKVSCKASGYDFSNYAIHWVRQAPGQRLEWMGWINAGNGNTKFSQKFQGRITVTRDTAASTAYMELRSLRSEDTAVYYCARDGSNMVRGIIIAYYFDYWGQGTLVTVSS VL: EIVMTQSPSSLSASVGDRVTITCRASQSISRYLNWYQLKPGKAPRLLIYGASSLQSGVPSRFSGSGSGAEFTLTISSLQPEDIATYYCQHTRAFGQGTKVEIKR	M⁻¹ s⁻¹	3.87e+06
“AT” antibody variant S96T (heavy chain CDR3) (antibody, name in Kabat numbering, V domains shown, not shown: human IgG1 CH1, hinge, CH2 and CH3) VH: QVQLVQSGAEVRKPGASVKVSCKASGYDFSNYAIHWVRQAPGQRLEWMGWINAGNGNTKFSQKFQGRITVTRDTAASTAYMELRSLRSEDTAVYYCARDTSNMVRGIIIAYYFDYWGQGTLVTVSS VL: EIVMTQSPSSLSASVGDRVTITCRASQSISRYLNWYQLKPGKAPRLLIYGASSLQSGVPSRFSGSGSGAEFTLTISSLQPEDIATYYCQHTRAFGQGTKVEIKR	M⁻¹ s⁻¹	3.14e+06
“AT” antibody variant S96K (heavy chain CDR3) (antibody, name in Kabat numbering, V domains shown, not shown: human IgG1 CH1, hinge, CH2 and CH3) VH: QVQLVQSGAEVRKPGASVKVSCKASGYDFSNYAIHWVRQAPGQRLEWMGWINAGNGNTKFSQKFQGRITVTRDTAASTAYMELRSLRSEDTAVYYCARDKSNMVRGIIIAYYFDYWGQGTLVTVSS VL: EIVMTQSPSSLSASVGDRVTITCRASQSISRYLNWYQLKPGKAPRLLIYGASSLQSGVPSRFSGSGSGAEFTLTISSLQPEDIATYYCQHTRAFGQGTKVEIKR	M⁻¹ s⁻¹	4.55e+06
“AT” antibody variant S96F (heavy chain CDR3) (antibody, name in Kabat numbering, V domains shown, not shown: human IgG1 CH1, hinge, CH2 and CH3) VH: QVQLVQSGAEVRKPGASVKVSCKASGYDFSNYAIHWVRQAPGQRLEWMGWINAGNGNTKFSQKFQGRITVTRDTAASTAYMELRSLRSEDTAVYYCARDFSNMVRGIIIAYYFDYWGQGTLVTVSS VL: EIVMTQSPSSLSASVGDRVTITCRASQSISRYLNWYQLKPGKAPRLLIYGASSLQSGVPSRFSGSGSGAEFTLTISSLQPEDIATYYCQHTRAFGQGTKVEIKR	M⁻¹ s⁻¹	317000
